system.under.test: 5-HT2A receptor (Homo sapiens, UniProt P28223)
Sequence (P28223 whole entry): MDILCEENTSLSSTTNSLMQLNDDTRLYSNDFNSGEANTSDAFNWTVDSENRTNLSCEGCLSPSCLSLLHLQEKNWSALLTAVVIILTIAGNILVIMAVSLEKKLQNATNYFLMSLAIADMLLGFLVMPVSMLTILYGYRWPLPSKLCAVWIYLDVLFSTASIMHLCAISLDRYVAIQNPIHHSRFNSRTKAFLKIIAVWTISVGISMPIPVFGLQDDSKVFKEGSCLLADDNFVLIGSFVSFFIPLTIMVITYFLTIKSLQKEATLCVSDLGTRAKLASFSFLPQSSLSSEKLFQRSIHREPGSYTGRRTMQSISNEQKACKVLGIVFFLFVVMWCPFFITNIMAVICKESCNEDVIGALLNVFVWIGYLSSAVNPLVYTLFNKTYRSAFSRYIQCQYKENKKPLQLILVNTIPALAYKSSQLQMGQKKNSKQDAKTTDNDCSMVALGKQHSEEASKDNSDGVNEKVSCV
assay.procedure: radioligand binding assay for 5-HT2A receptor ([3H]-ketanserin competitive binding)
conditions.used: human cortex or recombinant 5-HT2A receptor expressed in CHO-K1 cells, read-out: binding affinity to 5-HT2A serotonin receptor, Ki value
reported.property: Ki

Reference set (3 entries):
| smiles.code | reported.property | reported.result |
| --- | --- | --- |
| CN(C)CCCOCc1nc2c([nH]1)-c1cc(Cl)ccc1Sc1ccccc1-2 | Ki | < 100 nM |
| CN(C)CCCOc1ccccc1-c1nc2c([nH]1)-c1ccccc1Sc1ccccc1-2 | Ki | < 100 nM |
| CN(C)CCOCc1nc2c(n1C)-c1ccccc1Sc1ccccc1-2 | Ki | < 100 nM |

API: the following record is the query input.
# get_value(readout='Ki', item= Clc1ccc2c(c1)-c1[nH]cnc1-c1ccccc1O2 )
< 100 nM
